Each recorded value in this set is attributed to patent US20160176880A1.

measurement-target: recombinant guanylate cyclase reporter cell line (Rattus norvegicus, UniProt P19686+P20595)
Construct: expressed in transfected cells
Sequence (P19686 1-690): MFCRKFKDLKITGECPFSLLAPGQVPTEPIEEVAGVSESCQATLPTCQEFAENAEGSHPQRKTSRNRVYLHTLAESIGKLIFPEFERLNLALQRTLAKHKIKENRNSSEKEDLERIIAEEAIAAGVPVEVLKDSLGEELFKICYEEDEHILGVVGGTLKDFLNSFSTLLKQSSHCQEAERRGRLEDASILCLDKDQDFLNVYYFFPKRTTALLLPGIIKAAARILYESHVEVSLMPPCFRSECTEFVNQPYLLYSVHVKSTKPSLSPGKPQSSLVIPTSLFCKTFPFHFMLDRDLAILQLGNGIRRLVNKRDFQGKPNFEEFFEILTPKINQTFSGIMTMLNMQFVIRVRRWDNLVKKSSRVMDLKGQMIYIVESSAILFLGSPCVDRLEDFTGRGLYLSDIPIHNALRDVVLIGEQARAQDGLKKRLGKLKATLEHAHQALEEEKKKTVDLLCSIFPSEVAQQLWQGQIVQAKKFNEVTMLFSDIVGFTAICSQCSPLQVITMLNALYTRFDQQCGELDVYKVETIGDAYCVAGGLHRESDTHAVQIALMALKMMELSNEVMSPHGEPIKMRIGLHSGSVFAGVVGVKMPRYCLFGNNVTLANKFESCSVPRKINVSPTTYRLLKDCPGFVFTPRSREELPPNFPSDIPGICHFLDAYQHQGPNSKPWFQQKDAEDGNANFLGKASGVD
Sequence (P20595 1-619): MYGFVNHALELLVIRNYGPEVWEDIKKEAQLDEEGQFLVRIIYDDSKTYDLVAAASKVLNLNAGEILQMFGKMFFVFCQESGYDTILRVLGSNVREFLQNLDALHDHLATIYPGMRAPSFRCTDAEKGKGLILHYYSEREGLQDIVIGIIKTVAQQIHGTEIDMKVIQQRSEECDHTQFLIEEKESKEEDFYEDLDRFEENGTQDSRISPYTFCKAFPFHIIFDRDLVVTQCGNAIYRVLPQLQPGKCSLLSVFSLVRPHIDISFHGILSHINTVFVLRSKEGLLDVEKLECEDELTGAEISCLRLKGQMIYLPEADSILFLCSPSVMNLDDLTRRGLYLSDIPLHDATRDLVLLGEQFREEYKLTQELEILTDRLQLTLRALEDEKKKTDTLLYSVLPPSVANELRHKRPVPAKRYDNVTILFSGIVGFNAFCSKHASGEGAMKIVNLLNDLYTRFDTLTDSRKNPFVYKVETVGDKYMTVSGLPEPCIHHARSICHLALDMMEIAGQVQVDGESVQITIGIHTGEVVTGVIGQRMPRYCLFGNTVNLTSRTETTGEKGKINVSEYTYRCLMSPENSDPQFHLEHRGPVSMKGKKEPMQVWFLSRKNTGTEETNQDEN
test: Effect on a recombinant guanylate cyclase reporter cell line
Assay type: cell-based
setup-conditions: MEC = minimum effective concentration; in some cases mean values for individual determinations
parameter: MEC (µM)
Numbers only, in µM.

| compound | uom | value-reported |
| --- | --- | --- |
| Cc1cn2c(C(=O)NCC(C)(N)CC(F)F)c(C)nc2c(OCc2c(F)cccc2F)n1 (single isomer, unassigned; enantiomer b) [Example 42] | µM | 0.3 |
| Cc1cn2c(C(=O)NC(CCC(F)(F)C(F)(F)F)C(C)(C)O)c(C)nc2c(OCc2c(F)cccc2F)n1 (single isomer, unassigned; ent-8) [Example 29] | µM | 1 |
| Cc1cn2c(C(=O)NCc3ncc[nH]3)c(C)nc2c(OCc2c(F)cccc2F)n1 [Example 25] | µM | 3 |

Quick batch: MEC for everything below.
1. Cc1cn2c(C(=O)NC3CC4CCCC(C3)N4C)c(C)nc2c(OCc2c(F)cccc2F)n1 (stereo not shown) [Example 36]
2. CCC(N)(CC)CNC(=O)c1c(C)nc2c(OCc3c(F)cccc3F)nc(C)cn12 [Example 15]
3. Cc1cn2c(C(=O)Nc3c(C)nn(Cc4ccc(F)cc4)c3C)c(C)nc2c(OCc2c(F)cccc2F)n1 [Example 23]
4. Cc1cn2c(C(=O)NCC(C)(N)CCCF)c(C)nc2c(OCc2c(F)cccc2F)n1 (single isomer, unassigned; enantiomer b) [Example 40]

[1, 1, 1, 0.3]
